Experiment: Aqueous solubility of INX-315
Type: physicochemical
Conditions: 5% TPGS in PBS, aqueous with cosolvent or surfactant or cyclodextrin, 5% TPGS in PBS; read-out: Dissolved Drug Solubility
value_type: solubility (µg/mL)

1) NS(=O)(=O)c1ccc(Nc2ncc3cc4n(c3n2)C2(CCCCC2)C(=O)NN4)cc1; 313

###

Assay: First-in-human clinical study: plasma and whole blood PK of INX-315 (oral QD, ASD tablet)
Format: in vivo
Conditions: human, plasma, oral, 100 mg, plasma, 100 mg QD, Day 1, Cohort 1 (Table 27); read-out: t1/2, geometric mean (converted)
value_type: half-life (h)

1. NS(=O)(=O)c1ccc(Nc2ncc3cc4n(c3n2)C2(CCCCC2)C(=O)NN4)cc1; 12.6
